Biological target: endogenous CETP from human serum (Homo sapiens)
Construct: yielding a concentration of approximately 15 nM endogenous CETP in the assay
Sequence (P11597 18-493): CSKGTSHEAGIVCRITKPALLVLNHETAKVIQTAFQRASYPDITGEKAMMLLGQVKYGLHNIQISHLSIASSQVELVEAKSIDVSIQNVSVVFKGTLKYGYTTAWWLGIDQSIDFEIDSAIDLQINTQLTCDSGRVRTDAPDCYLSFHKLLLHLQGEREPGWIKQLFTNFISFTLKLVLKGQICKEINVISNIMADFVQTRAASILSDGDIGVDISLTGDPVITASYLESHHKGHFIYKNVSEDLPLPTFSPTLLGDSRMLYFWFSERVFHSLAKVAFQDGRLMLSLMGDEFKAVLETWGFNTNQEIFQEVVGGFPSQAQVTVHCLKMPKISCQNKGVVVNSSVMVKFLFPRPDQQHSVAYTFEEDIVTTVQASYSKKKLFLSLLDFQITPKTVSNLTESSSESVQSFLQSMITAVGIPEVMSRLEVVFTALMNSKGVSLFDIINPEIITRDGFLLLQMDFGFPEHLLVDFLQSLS
Test: RTA assay using endogenous CETP from serum (95% RTA)
Conditions: 95% human serum
Field: IC50. Provide a value for each of the molecules that follow.
Numeric answer only, unit µM assumed.

Quick check: IC50 of O[C@H](CN1CC(Cc2cccc(N3CC(F)(F)C3)c2)(c2cccc(OC(F)(F)F)c2)c2ccccc21)C(F)(F)F (some centres unmarked) [Example 48] ?
0.246

Request the reported IC50 associated with COC(=O)c1cccc(CC2(c3cccc(OC(F)(F)F)c3)CN(C[C@@H](O)C(F)(F)F)c3ccccc32)c1 (some centres unmarked) [Example 60]
0.937

What value of IC50 has been reported for the following molecule? O[C@H](CN1CC(Cc2cccc(OC(F)(F)F)c2)(c2cccc(N[C@@H]3CCOC3)c2)c2ccccc21)C(F)(F)F (mixture of isomers) [Example 32]
1.43

Bench note: what IC50 did C[C@@H]1CN(c2cccc(C3(Cc4cccc(OC(F)(F)F)c4)CN(C[C@@H](O)C(F)(F)F)c4ccccc43)c2)CCO1 (some centres unmarked) [Example 43] show?
0.932

# get_value(readout='IC50', item= O[C@H](CN1CC(Cc2cccc(N3CCC(F)(F)C3)c2)(c2cccc(OC(F)(F)F)c2)c2ccccc21)C(F)(F)F (some centres unmarked) [Example 54] )
3.65

Which measured IC50 value corresponds to O[C@H](CN1CC(Cc2cccc(OC(F)(F)F)c2)(c2cccc(OC(F)(F)C(F)F)c2)c2ccccc21)C(F)(F)F (some centres unmarked) [Example 8] ?
0.094

Entry CCOc1cc(C2(Cc3cccc(OC(F)(F)F)c3)CN(C[C@@H](O)C(F)(F)F)c3ccccc32)ccn1 (some centres unmarked) [Example 21] : reported IC50 = ?
0.283

Any idea what IC50 was measured for C[C@@H]1CN(c2cccc(CC3(c4cccc(OC(F)(F)F)c4)CN(C[C@@H](O)C(F)(F)F)c4ccccc43)c2)CCO1 (some centres unmarked) [Example 51] ?
1.72

State the recorded IC50 for this entry: O[C@H](CN1CC(Cc2cccc(OC(F)(F)F)c2)(c2cccc(N3CCC(F)(F)CC3)c2)c2ccccc21)C(F)(F)F (some centres unmarked) [Example 39]
1.08

Can you share its IC50? I mean this molecule: CC1(O)CN(c2cccc(CC3(c4cccc(OC(F)(F)F)c4)CN(C[C@@H](O)C(F)(F)F)c4ccccc43)c2)C1 (some centres unmarked) [Example 53]
8.05

Quick one: IC50 of O[C@H](CN1CC(Cc2ccccc2OC(F)(F)F)(c2cccc(OC(F)(F)F)c2)c2ccccc21)C(F)(F)F (some centres unmarked) [Example 9] ?
3.37

Can you look up the measured IC50 of Cc1cccc2c1N(C[C@@H](O)C(F)(F)F)CC2(Cc1cccc(OC(F)(F)F)c1)c1cccc(OC(F)(F)F)c1 (some centres unmarked) [Example 11] for me?
0.491

Given COc1cccc(-c2cccc(C3(Cc4cccc(OC(F)(F)F)c4)CN(C[C@@H](O)C(F)(F)F)c4ccccc43)c2)c1 (mixture of isomers) [Example 25] , state its recorded IC50.
3.13

Quick one: IC50 of O[C@H](CN1CC(Cc2cccc(OC(F)(F)F)c2)(c2ccc(F)c(Cl)c2)c2ccccc21)C(F)(F)F (some centres unmarked) [Example 19] ?
3.74

Looking for the measured IC50 of O[C@H](CN1CC(Cc2cccc(OC(F)(F)F)c2)(c2cc(F)cc(C(F)(F)F)c2)c2ccccc21)C(F)(F)F (some centres unmarked) [Example 13] , can you help?
2.51

Dear colleague, I am looking for the recorded IC50 of the following molecule: O[C@H](CN1CC(Cc2cccc(OC(F)(F)F)c2)(c2cccc(N3CCC(F)(F)C3)c2)c2ccccc21)C(F)(F)F (some centres unmarked) [Example 35]
0.533

Reported IC50 for O[C@H](CN1CC(Cc2cccc(N3CC[C@@H](F)C3)c2)(c2cccc(OC(F)(F)F)c2)c2ccccc21)C(F)(F)F (some centres unmarked) [Example 58] : what is it?
1.41

Which IC50 is reported for this molecule? C[C@H]1CN(c2cccc(C3(Cc4cccc(OC(F)(F)F)c4)CN(C[C@@H](O)C(F)(F)F)c4ccccc43)c2)CCO1 (some centres unmarked) [Example 38]
0.674

For CS(=O)(=O)c1cccc(CC2(c3cccc(OC(F)(F)F)c3)CN(C[C@@H](O)C(F)(F)F)c3ccccc32)c1 (some centres unmarked) [Example 46] , what is its reported IC50?
8.96

So what does the record say about IC50 for O[C@H](CN1CC(Cc2cccc(OC(F)(F)F)c2)(c2cccc(OC(F)(F)F)c2)c2cccc(F)c21)C(F)(F)F (some centres unmarked) [Example 12] ?
0.222

Please report the recorded IC50 for O[C@H](CN1CC(Cc2cccc(OC(F)(F)F)c2)(c2cccc(N3CC[C@@H](F)C3)c2)c2ccccc21)C(F)(F)F (some centres unmarked) [Example 42] .
0.766

// lookup IC50 for O[C@H](CN1CC(Cc2cccc(-c3cccc(OC(F)(F)F)c3)c2)(c2cccc(OC(F)(F)F)c2)c2ccccc21)C(F)(F)F (some centres unmarked) [Example 47]
2.88

Form field: reported IC50 of CO[C@@H]1CCN(c2cccc(C3(Cc4cccc(OC(F)(F)F)c4)CN(C[C@@H](O)C(F)(F)F)c4ccccc43)c2)C1 (some centres unmarked) [Example 36]
0.78

Would you mind telling me what IC50 value was observed for O[C@H](CN1CC(Cc2cccc(OC(F)(F)F)c2)(c2ccc(F)c(C(F)(F)F)c2)c2ccccc21)C(F)(F)F (some centres unmarked) [Example 14] ?
0.685

May I ask what IC50 has been recorded for O[C@H](CN1CC(Cc2ccccc2)(c2cccc(OC(F)(F)F)c2)c2ccccc21)C(F)(F)F (some centres unmarked) [Example 2] ?
0.746

Requested field: IC50. Item: O=C(O)c1ccc(-c2cccc(C3(Cc4cccc(OC(F)(F)F)c4)CN(C[C@@H](O)C(F)(F)F)c4ccccc43)c2)cc1 (mixture of isomers) [Example 26]
3.86

====

Biological target: endogenous CETP from human serum (Homo sapiens)
Construct: yielding a concentration of approximately 15 nM endogenous CETP in the assay
Sequence (P11597 18-493): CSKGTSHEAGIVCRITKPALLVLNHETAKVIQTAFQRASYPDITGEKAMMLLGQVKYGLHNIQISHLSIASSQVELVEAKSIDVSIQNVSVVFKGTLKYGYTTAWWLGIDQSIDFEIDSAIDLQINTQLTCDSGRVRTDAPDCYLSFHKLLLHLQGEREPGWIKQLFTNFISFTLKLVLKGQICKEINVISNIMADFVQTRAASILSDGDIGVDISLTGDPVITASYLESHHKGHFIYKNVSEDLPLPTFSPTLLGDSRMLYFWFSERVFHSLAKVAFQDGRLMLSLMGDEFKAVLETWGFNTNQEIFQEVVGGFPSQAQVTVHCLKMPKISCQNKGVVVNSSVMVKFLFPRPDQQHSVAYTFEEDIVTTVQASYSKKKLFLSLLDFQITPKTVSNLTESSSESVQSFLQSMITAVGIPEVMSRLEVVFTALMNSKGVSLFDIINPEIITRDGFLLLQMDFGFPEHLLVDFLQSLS
Test: RTA assay using endogenous CETP from serum (95% RTA)
Details: 95% human serum
Simple rule here: IC50 less than 700 nM is class 1, otherwise class 0.

Here's an entry: O[C@H](CN1CC(Cc2cccc(OC(F)(F)F)c2)(c2cccc(OC(F)(F)F)c2)c2cc(F)ccc21)C(F)(F)F (stereo partly drawn) [Example 6] . Is its IC50 below 700 nM?
class 0

Lab note: confirm whether the reported IC50 for this compound is below 700 nM, equality not counting. compound: Cc1csc(CC2(c3cccc(OC(F)(F)F)c3)CN(C[C@@H](O)C(F)(F)F)c3c(F)cccc32)n1 (stereo partly drawn) [Example 16]
class 0

Given CC(C)Oc1cc(C2(Cc3cccc(OC(F)(F)F)c3)CN(C[C@@H](O)C(F)(F)F)c3ccccc32)ccn1 (stereo partly drawn) [Example 22] , is recorded IC50 strictly lower than 700 nM?
class 1

Hello, is IC50 of the following compound strictly smaller than 700 nM? N#Cc1cccc(CC2(c3cccc(OC(F)(F)F)c3)CN(C[C@@H](O)C(F)(F)F)c3ccccc32)c1 (stereo partly drawn) [Example 45]
class 0

Determine if O[C@H](CN1CC(Cc2cccc(N3CC(F)C3)c2)(c2cccc(OC(F)(F)F)c2)c2ccccc21)C(F)(F)F (stereo partly drawn) [Example 52] shows IC50 strictly lower than 700 nM.
class 0

# check: IC50 < 700 nM for Cc1ccc(C2(Cc3cccc(OC(F)(F)F)c3)CN(C[C@@H](O)C(F)(F)F)c3ccccc32)cc1Cl (stereo partly drawn) [Example 18]
class 0

Lab note: IC50 threshold 700 nM. Does this compound come in strictly under it? Cc1cc(C(=O)O)ccc1-c1cccc(C2(Cc3cccc(OC(F)(F)F)c3)CN(C[C@@H](O)C(F)(F)F)c3ccccc32)c1 (stereo partly drawn) [Example 27]
class 0

Determine if O[C@H](CN1CC(Cc2cccc(OC(F)(F)F)c2)(c2cccc(N3CCOCC3)c2)c2ccccc21)C(F)(F)F (mixture of isomers) [Example 31] shows IC50 strictly lower than 700 nM.
class 1

Hi there! Is IC50 for CC1(O)CN(c2cccc(C3(Cc4cccc(OC(F)(F)F)c4)CN(C[C@@H](O)C(F)(F)F)c4ccccc43)c2)C1 (stereo partly drawn) [Example 33] below 700 nM, do you know?
class 0

Would you kindly verify if IC50 of O[C@H](CN1CC(Cc2cccc(N3CC4(COC4)C3)c2)(c2cccc(OC(F)(F)F)c2)c2ccccc21)C(F)(F)F (stereo partly drawn) [Example 55] is strictly less than 700 nM?
class 1

Confirm or reject: IC50 of O[C@H](CN1CC(Cc2cccc(OC(F)(F)F)c2)(c2ccc(OC(F)(F)F)cc2)c2ccccc21)C(F)(F)F (stereo partly drawn) [Example 7] lies strictly below 700 nM
class 1

Lab note: IC50 threshold 700 nM. Does this compound come in strictly under it? O[C@H](CN1CC(Cc2cccc(OC(F)(F)F)c2)(c2ccnc(C(F)(F)F)c2)c2ccccc21)C(F)(F)F (stereo partly drawn) [Example 20]
class 0

Here's an entry: COc1ccc(CC2(c3cccc(OC(F)(F)F)c3)CN(C[C@@H](O)C(F)(F)F)c3ccccc32)cc1 (stereo partly drawn) [Example 5] . Is its IC50 below 700 nM?
class 0

Below 700 nM on IC50? Entry CO[C@H]1CCN(c2cccc(C3(Cc4cccc(OC(F)(F)F)c4)CN(C[C@@H](O)C(F)(F)F)c4ccccc43)c2)C1 (stereo partly drawn) [Example 37]
class 1

Determine whether this compound shows IC50 lower than 700 nM (ties excluded): O[C@H](CN1CC(Cc2cccc(OC(F)(F)F)c2)(c2cccc(C(F)(F)F)c2)c2ccccc21)C(F)(F)F (mixture of isomers) [Example 1]
class 0

Input O[C@H](CN1CC(Cc2cccc(OC(F)(F)F)c2)(c2cccc(OC(F)(F)F)c2)c2ccccc21)C(F)(F)F (stereo partly drawn) [Example 10] ; condition: IC50 strictly below 700 nM. Does it hold?
class 1

Determine if O[C@H](CN1CC(Cc2cccc(OC(F)(F)F)c2)(c2ccnc(N3CCOCC3)c2)c2ccccc21)C(F)(F)F (stereo partly drawn) [Example 24] shows IC50 strictly lower than 700 nM.
class 0

Does this compound meet the criterion IC50 < 700 nM? OC1CCN(c2cccc(C3(Cc4cccc(OC(F)(F)F)c4)CN(C[C@@H](O)C(F)(F)F)c4ccccc43)c2)C1 (stereo partly drawn) [Example 44]
class 0

Hello, I'm reviewing records and need to know if IC50 of O[C@H](CN1CC(Cc2cccc(OC(F)(F)F)c2)(c2cccc(Cl)c2)c2ccccc21)C(F)(F)F (mixture of isomers) [Example 4] is below 700 nM. Could you check?
class 0

Item O[C@H](CN1CC(Cc2cccc(Br)c2)(c2cccc(OC(F)(F)F)c2)c2ccccc21)C(F)(F)F (stereo partly drawn) [Example 3] : IC50 beneath 700 nM, strictly?
class 1

Please let me know if C[C@H]1CN(c2cccc(CC3(c4cccc(OC(F)(F)F)c4)CN(C[C@@H](O)C(F)(F)F)c4ccccc43)c2)CCO1 (stereo partly drawn) [Example 50] shows IC50 below 700 nM.
class 0

Dear reviewer, please state whether CO[C@H]1CCN(c2cccc(CC3(c4cccc(OC(F)(F)F)c4)CN(C[C@@H](O)C(F)(F)F)c4ccccc43)c2)C1 (stereo partly drawn) [Example 49] has IC50 strictly beneath 700 nM.
class 0

Is IC50 of O[C@H](CN1CC(Cc2cccc(N3CCC(F)(F)CC3)c2)(c2cccc(OC(F)(F)F)c2)c2ccccc21)C(F)(F)F (stereo partly drawn) [Example 56] strictly below 700 nM?
class 0

Is IC50 of O[C@H](CN1CC(Cc2cccc(OC(F)(F)F)c2)(c2cccc(N3CC[C@H](F)C3)c2)c2ccccc21)C(F)(F)F (stereo partly drawn) [Example 41] strictly below 700 nM?
class 1

Is it true that IC50 reported for O[C@H](CN1CC(Cc2cccc(N3CCCC(F)(F)C3)c2)(c2cccc(OC(F)(F)F)c2)c2ccccc21)C(F)(F)F (stereo partly drawn) [Example 59] is less than 700 nM?
class 0

Say whether its IC50 is strictly beneath 700 nM. Entry: O[C@H](CN1CC(Cc2cccc(OC(F)(F)F)c2)(c2cccc(N3CCCC(F)(F)C3)c2)c2ccccc21)C(F)(F)F (stereo partly drawn) [Example 40]
class 0
